FYI, the data here is from patent US9789181B2.

molecular target: purified HLA DRB1 *0301 (Homo sapiens, UniProt P01903+P01911, A100K/A102G/A103R/A169T/F55Y/I96L/K41T/L162R/M171V/P40S/Q125H/Q178H/Q39Y/R42S/S66N/T106N/T262R/W38E/Y61H); assay: IC50nM to purified HLA | DRB1 *0301
Sequence (P01903 26-254 limits assumed, other chains not shown): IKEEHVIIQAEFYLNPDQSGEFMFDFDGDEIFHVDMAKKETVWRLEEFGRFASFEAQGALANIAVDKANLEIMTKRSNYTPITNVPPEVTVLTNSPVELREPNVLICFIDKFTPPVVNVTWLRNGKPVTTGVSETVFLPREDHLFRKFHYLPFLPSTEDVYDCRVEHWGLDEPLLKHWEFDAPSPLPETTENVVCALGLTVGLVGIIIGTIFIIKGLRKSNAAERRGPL
pIC50: −log10 of the molar value. Where no end group is shown, it is not given here.
Catalogue of sequences with associated pIC50
assay endpoint: pIC50

biosequence	assay endpoint	numeric value
AAAYFVAAWTLHAAA [SEQ ID NO: 21]	pIC50	6.92
AAAHFVAAWTLKAAA [SEQ ID NO: 25]	pIC50	6.58
AAAWFVAAYTLHAAA [SEQ ID NO: 8]	pIC50	6.80
AAAYFVAANTLHAAA [SEQ ID NO: 24]	pIC50	6.89
AAAFFVAAWTLKAAA [SEQ ID NO: 11]	pIC50	6.64
AAAWFVAAWTLHAAA [SEQ ID NO: 7]	pIC50	6.95
AAAFFVAAFTLHAAA [SEQ ID NO: 14]	pIC50	6.43
AAAYFVAAYTLHAAA [SEQ ID NO: 22]	pIC50	7.11
AAAWFVAAWTLKAAA [SEQ ID NO: 5]	pIC50	6.79
AAAFFVAAWTLHAAA [SEQ ID NO: 12]	pIC50	6.89
AAAYFVAAFTLHAAA [SEQ ID NO: 23]	pIC50	6.90
AAAHFVAAYTLHAAA [SEQ ID NO: 27]	pIC50	6.67
AAAFFVAAYTLHAAA [SEQ ID NO: 13]	pIC50	6.82
AAAFFVAANTLKADA [SEQ ID NO: 19]	pIC50	6.85
AAAWFVAANTLHAAA [SEQ ID NO: 10]	pIC50	6.76
AAAWFVAAFTLHAAA [SEQ ID NO: 9]	pIC50	6.86
AAAKFVAAWTLKAAA [SEQ ID NO: 4]	pIC50	6.68
